Quick reference for pest or weed control at 500 ppm among some compounds
system: Botrytis cinerea; experiment: Botrytis cinerea test on tomato, preventive, greenhouse; format: in vivo; settings: preventive spray on bean/chili plants (heading: tomato), inoculated one day after treatment, read-out: control (efficacy, disease severity) compared to the untreated check
readout-kind: pest or weed control at 500 ppm

> print(dat)
                                    compound  result
 1  Cn1cc(F)c2cc(C(=O)NC(C)(C)Cc3ccc(Cl)cc3)cnc21   ≥ 70%
 2   Cc1nc2[nH]ccc2cc1C(=O)NC1(Cc2ccccc2)CC1   ≥ 70%
 3  Cc1ccc(CC(C)(C)NC(=O)c2cnc3c(c2)cc(C)n3C)cc1   ≥ 70%
 4    CC(C)(Cc1ccccc1)NC(=O)c1cnc2cc[nH]c2c1   ≥ 70%
 5     CC(C)(Cc1ccccc1)NC(=O)c1cnc2c(c1)CCC2   ≥ 70%
 6    Cn1ccc2ncc(C(=O)NC(C)(C)Cc3ccccc3)cc21   ≥ 70%
 7  CC(C)CC(C)(Cc1ccccc1)NC(=O)c1cnc2c(c1)c(C1CC1)cn2C (stereo not shown)   ≥ 70%
 8  Cc1cc(F)ccc1C(=O)OCC(C)(C)NC(=O)c1cnc2c(ccn2C)c1   ≥ 70%
 9  CC(C)CC(C)(Cc1ccccc1)NC(=O)c1cnc2c(c1)CCC2 (stereo not shown)   ≥ 70%
10  Cc1nc2[nH]ccc2cc1C(=O)NC(C)(Cc1ccccc1)CC(C)C (stereo not shown)   ≥ 70%
11  CC(C)CC(C)(Cc1ccccc1)NC(=O)c1cnc2c(c1)CCCC2 (stereo not shown)   ≥ 70%
12    Cn1ccc2cc(C(=O)NC(C)(C)Cc3ccccc3)cnc21   ≥ 70%
13       CC(C)(Cc1ccccc1)NC(=O)c1cnc2ccsc2c1   ≥ 70%
14  Cn1cc(Cl)c2cc(C(=O)NC(C)(C)Cc3ccccc3Cl)cnc21   ≥ 70%
15  CCC(O)(CC)C(NC(=O)c1cnc2c(ccn2C)c1)c1ccccc1 (stereo not shown)   ≥ 70%
16  Cn1ccc2cc(C(=O)NC(C)(C)Cc3ccc(Br)cc3)cnc21   ≥ 70%
17  Cn1ccc2cc(C(=O)NC(C)(C)Cc3ccc(F)cc3)cnc21   ≥ 70%
18  Cc1nc2c(ccn2C)cc1C(=O)NC(C)(C)Cc1ccccc1F   ≥ 70%
19  CC(C)CC(C)(Cc1ccccc1)NC(=O)c1cnc2c(c1)OCCN2C (stereo not shown)   ≥ 70%

----------
tested on: Phytophthora infestans; assay: whole plant or invertebrate; type: in vivo, Phytophthora infestans on tomato; settings: in Solanum lycopersicum, read-out: control (efficacy, disease severity) compared to the untreated check
readout-kind: pest or weed control at 500 ppm

> print(dat)
                           substance.smiles                  system                     readout.kind  result
1  Cn1ccc2cc(C(=O)NC(C)(C)Cc3cccc(Br)c3)cnc21  Phytophthora infestans  pest or weed control at 500 ppm   ≥ 70%
2  Cn1cc(F)c2cc(C(=O)NC(C)(C)Cc3ccccc3F)cnc21  Phytophthora infestans  pest or weed control at 500 ppm   ≥ 70%
3     CC(C)(Cc1ccccc1)NC(=O)c1cnc2c(c1)CCC2  Phytophthora infestans  pest or weed control at 500 ppm   ≥ 70%

----------
test system: Phakopsora pachyrhizi; test: Phakopsora pachyrhizi test on soybean, preventive, greenhouse; type: in vivo; settings: preventive spray on soybean, inoculated one day after treatment, read-out: control (efficacy, disease severity) compared to the untreated check
# reported pest or weed control at 500 ppm; entries follow
readout-kind: pest or weed control at 500 ppm

> print(dat)
                                    compound                     readout.kind  result
 1    CC(C)(Cc1ccccc1)NC(=O)c1cnc2c(c1)CCCC2  pest or weed control at 500 ppm   ≥ 70%
 2  CC(C)CC(C)(Cc1ccccc1)NC(=O)c1cnc2c(c1)c(Br)cn2C (stereo not drawn)  pest or weed control at 500 ppm   ≥ 70%
 3   Cn1cc(Cl)c2cc(C(=O)NC3Cc4ccccc4C3)cnc21  pest or weed control at 500 ppm   ≥ 70%
 4  CC(C)CC(C)(Cc1ccccc1)NC(=O)c1cnc2[nH]ccc2c1 (stereo not drawn)  pest or weed control at 500 ppm   ≥ 70%
 5       Cn1ccc2cc(C(=O)NC3Cc4ccccc4C3)cnc21  pest or weed control at 500 ppm   ≥ 70%
 6  Cn1ccc2cc(C(=O)NC(C)(C)Cc3ccc(Cl)c(Cl)c3)cnc21  pest or weed control at 500 ppm   ≥ 70%
 7     CC(C)(Cc1ccccc1)NC(=O)c1cnc2c(c1)CCC2  pest or weed control at 500 ppm   ≥ 70%
 8    CC(C)(Cc1ccccc1)NC(=O)c1cnc2cc[nH]c2c1  pest or weed control at 500 ppm   ≥ 70%
 9  CC(C)CC(C)(Cc1ccccc1)NC(=O)c1cnc2c(c1)c(Cl)cn2C (stereo not drawn)  pest or weed control at 500 ppm   ≥ 70%
10  C=C(C)CC(C)(Cc1ccccc1F)NC(=O)c1cnc2c(c1)c(Br)cn2C (stereo not drawn)  pest or weed control at 500 ppm   ≥ 70%
11    Cn1ccc2ncc(C(=O)NC(C)(C)Cc3ccccc3)cc21  pest or weed control at 500 ppm   ≥ 70%
12  CN(C(=O)c1cnc2c(c1)c(Cl)cn2C)C(C)(C)Cc1ccccc1  pest or weed control at 500 ppm   ≥ 70%
13  COc1cc(C(O)C(C)(C)NC(=O)c2cnc3ccsc3c2)ccc1F (stereo not drawn)  pest or weed control at 500 ppm   ≥ 70%
14               CC(C)(C)NC(=O)c1cnc2ccsc2c1  pest or weed control at 500 ppm   ≥ 70%
15  Cc1cc(F)ccc1C(=O)OCC(C)(C)NC(=O)c1cnc2c(ccn2C)c1  pest or weed control at 500 ppm   ≥ 70%
16  CC(c1ccccc1F)C(C)(C)NC(=O)c1cnc2c(c1)c(C1CC1)cn2C (stereo not drawn)  pest or weed control at 500 ppm   ≥ 70%
17  Cn1ccc2cc(C(=O)NC(C)(C)C(C)(C)c3ccccc3)cnc21  pest or weed control at 500 ppm   ≥ 70%
18  Cn1cc(Cl)c2cc(C(=O)NC(C)(C)Cc3ccccc3Cl)cnc21  pest or weed control at 500 ppm   ≥ 70%
